# assay comment: Bioavailability of phenylephrine: plasma levels after delivery to the colon via Enterion capsules or oral Sudafed PE
# Type: in vivo, human
# condition info: both sexes, human, plasma, oral; 30 mg to colon via Enterion capsule (Regimen C); 24 h post-dose; read-out: Mean plasma concentration (Unconjugated)
Where a name gives a salt, the structure may show the parent alone.
measure name: concentration at 24 h (ng/mL)
Kindly provide the numeric value in ng/mL only, without the unit symbol.

**Q:** # lookup: concentration at 24 h of CNC[C@H](O)c1cccc(O)c1 [Phenylephrine hydrochloride, phenylephrine hydrochloride]
**A:** 0.157

----------
# assay comment: Bioavailability of phenylephrine: plasma levels after delivery to the colon via Enterion capsules or oral Sudafed PE
# Type: in vivo, human
# condition info: both sexes, human, plasma, oral, 10 mg, 10 mg PE-colon (Regimen A) n = 2; mean; read-out: AUC0–24, unconjugated Phenylephrine (Table 13)
Counter-ions that a name gives are not always drawn.
measure name: AUC(0-t) (ng·h/mL)
Your answer is read as ng·h/mL, so omit the unit and give the number.

**Q:** May I ask what AUC(0-t) has been recorded for CNC[C@H](O)c1cccc(O)c1 [Phenylephrine hydrochloride, phenylephrine hydrochloride] ?
**A:** 2.87

# credit: patent US8956662B2
